target: c-MET (HGFR) (Homo sapiens, UniProt P08581); construct: purchased Upstate 14-526; experiment: HGFR Continuous-Coupled Spectrophotometric Assay; format: biochemical; conditions: Met-2 substrate peptide, 50 nM HGFR, 37° C.; read-out: Met Ki
Sequence (P08581 974-1390 limits assumed): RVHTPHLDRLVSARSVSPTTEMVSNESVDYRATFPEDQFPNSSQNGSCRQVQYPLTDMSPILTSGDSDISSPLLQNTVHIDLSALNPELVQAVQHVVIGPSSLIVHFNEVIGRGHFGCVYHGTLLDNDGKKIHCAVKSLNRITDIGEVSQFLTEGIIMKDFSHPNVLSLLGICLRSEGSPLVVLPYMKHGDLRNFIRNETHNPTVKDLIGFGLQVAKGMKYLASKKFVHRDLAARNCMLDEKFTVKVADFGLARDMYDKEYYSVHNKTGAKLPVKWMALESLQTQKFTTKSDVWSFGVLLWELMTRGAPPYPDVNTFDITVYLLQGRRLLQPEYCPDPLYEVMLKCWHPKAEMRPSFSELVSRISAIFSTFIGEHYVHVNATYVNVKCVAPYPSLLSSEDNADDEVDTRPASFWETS
Dear colleague, classification is by Ki, with ranges listed here: lower level: < 30 nM; middle level: ≥ 30 nM and < 100 nM; upper level: ≥ 100 nM

CC(Oc1cc(-c2cnn(CCN3CCCC3=O)c2)cnc1N)c1c(Cl)ccc(F)c1Cl (centres unmarked) [Example 133] :: upper level
CC(Oc1cc(-c2cnn(CC(C)(C)O)c2)cnc1N)c1c(Cl)ccc(F)c1Cl (centres unmarked) [Example 130] :: middle level
CC(Oc1cc(-c2cnn(C)c2)cnc1N)c1c(Cl)c(F)cc(OC2CCCNC2)c1Cl (centres unmarked) [Example 156] :: middle level
CC(Oc1cc(-c2cnn(C)c2)cnc1N)c1c(Cl)c(F)cc(OC2CNC2)c1Cl (centres unmarked) [Example 155] :: lower level
Cc1ccc(Cl)c(C(C)Oc2cc(-c3cnn(C4CCNCC4)c3)cnc2N)c1Cl (centres unmarked) [Example 143] :: lower level
COc1cc(Cl)c(C(C)Oc2cc(-c3cnn(C4CCNCC4)c3)cnc2N)c(Cl)c1OC (centres unmarked) [Example 154] :: upper level
COCC(=O)N1CCC(n2cc(-c3cnc(N)c(OC(C)c4c(Cl)ccc(F)c4Cl)c3)cn2)CC1 (centres unmarked) [Example 124] :: lower level
CC(Oc1cc(-c2cnn(C3CCNCC3)c2)cnc1N)c1cc(F)ccc1Br (centres unmarked) [Example 128] :: upper level
Cc1ccc(Cl)c(C(C)Oc2cc(Br)cnc2N)c1Cl (centres unmarked) [Example 142] :: upper level
CC(Oc1cc(-c2cnn(C3CCNCC3)c2)cnc1N)c1cc(F)cc(F)c1Cl (centres unmarked) [Example 144] :: upper level
COc1cc(F)c(Cl)c(C(C)Oc2cc(-c3cnn(C4CCNCC4)c3)cnc2N)c1Cl (centres unmarked) [Example 148] :: lower level
CC(Oc1cccnc1N)c1cc(F)ccc1C#N (centres unmarked) [Example 129] :: upper level
CC(Oc1cc(-c2cnn(C3CCN(C(=O)CN4CCOCC4)CC3)c2)cnc1N)c1c(Cl)ccc(F)c1Cl (centres unmarked) [Example 123] :: lower level
CC(C)Oc1ccc(Cl)c(C(C)Oc2cc(-c3cnn(C4CCNCC4)c3)cnc2N)c1Cl (centres unmarked) [Example 140] :: middle level
CC(Oc1cc(-c2cnn(C3CCN(C(=O)NCCO)CC3)c2)cnc1N)c1c(Cl)ccc(F)c1Cl (centres unmarked) [Example 122] :: upper level
COc1ccc(Cl)c(C(C)Oc2cc(-c3cnn(C4CCNCC4)c3)cnc2N)c1Cl (centres unmarked) [Example 138] :: lower level
CC(Oc1cc(Br)cnc1N)c1c(Cl)c(F)cc(OCCN(C)C)c1Cl (centres unmarked) [Example 153] :: upper level
CC(Oc1cc(-c2cnn(C)c2)cnc1N)c1c(Cl)c(F)cc(O[C@@H]2CCNC2)c1Cl (some centres unmarked) [Example 152] :: middle level
